# TESTED_SYSTEM: human SLC6A19 and TMEM27 (Homo sapiens)
# Construct: expressed in transfected cells
# ASSAY_INFO: 13C6,15N-isoleucine uptake in CHO cells with doxycycline-inducible expression of human SLC6A19 and TMEM27, RapidFire mass spectrometry (Example B-2)
# Type: cell-based
# CONDITIONS_USED: read-out: SLC6A19_RapidFire Uptake Assay IC50
pIC50: −log10 of the molar value.
READOUT_KIND: pIC50

>>> df
                                entry_smiles  readout_kind  qualifying_sign  observed_value
 0  CC1(C(=O)NCc2cc3ccc(OCc4ccsn4)cc3[nH]2)CC1         pIC50                =            7.36
 1  CNC(=O)NCc1cc2cc(Cl)c(OCc3cncs3)cc2[nH]1         pIC50                =            6.29
 2  CC1(C(=O)NCc2cc3cc(Cl)c(OCc4ccsc4Cl)cc3[nH]2)CC1         pIC50                =            6.42
 3  CC1(C(=O)NCc2cc3ccc(CCc4ccon4)cc3[nH]2)CC1         pIC50                =            6.33
 4  CC1(C(=O)NCc2cc3cc(Cl)c(OCCC4CC(F)(F)C4)cc3[nH]2)CC1         pIC50                =            6.11
 5  CC1(C(=O)NCc2cc3cc(C4CC4)c(OCc4cscn4)cc3[nH]2)CC1         pIC50                =            6.71
 6  CC1(C(=O)NCc2cc3cc(Cl)c(OCc4ccsn4)cc3[nH]2)CC1         pIC50                =            7.36
 7  Cc1cc(COc2cc3[nH]c(CNC(=O)C4(C(F)(F)F)CC4)cc3cc2Cl)no1         pIC50                =            6.84
 8  CC(C)C(=O)NCc1cc2cc(Cl)c(OCc3cocn3)cc2[nH]1         pIC50                =            6.59
 9  COc1cc2cc(CNC(=O)C3(C)CC3)[nH]c2cc1CCc1cscn1         pIC50                =            6.83
10  CC1(C(=O)NCc2cc3cc(Cl)c(OCc4cnsn4)cc3[nH]2)CC1         pIC50                =            7.41
11  Cc1cc2c(Cl)c(CNC(=O)N3CCC3)[nH]c2cc1OCc1cscn1         pIC50                =            6.86
12  O=C(NCc1cc2cc(OC(F)(F)F)c(OCc3cscn3)cc2[nH]1)N1CCC1         pIC50                =            6.88
13  CC1(C(=O)NCc2cc3cc(C4CC4)c(OCc4ccon4)cc3[nH]2)CC1         pIC50                =            6.67
14  O=C(NCc1cc2cc(OC(F)(F)F)c(CCc3cscn3)cc2[nH]1)N1CCCC1         pIC50                =            6.80
15  Cc1cc(COc2cc3[nH]c(CNC(=O)C(C)C)cc3cc2Cl)no1         pIC50                =            7.19
16  CC1(C(=O)NCc2cc3cc(Cl)c(OCc4cscn4)c(Cl)c3[nH]2)CC1         pIC50                <            4.30
17  O=C(NCc1cc2cc(Cl)c(NCc3cscn3)cc2[nH]1)N1CCCC1         pIC50                =            6.55

====

Attribute: pIC50
# TESTED_SYSTEM: human SLC6A19 and TMEM27 (Homo sapiens, UniProt Q695T7)
# Construct: expressed in transfected cells
# Sequence (Q695T7 1-634): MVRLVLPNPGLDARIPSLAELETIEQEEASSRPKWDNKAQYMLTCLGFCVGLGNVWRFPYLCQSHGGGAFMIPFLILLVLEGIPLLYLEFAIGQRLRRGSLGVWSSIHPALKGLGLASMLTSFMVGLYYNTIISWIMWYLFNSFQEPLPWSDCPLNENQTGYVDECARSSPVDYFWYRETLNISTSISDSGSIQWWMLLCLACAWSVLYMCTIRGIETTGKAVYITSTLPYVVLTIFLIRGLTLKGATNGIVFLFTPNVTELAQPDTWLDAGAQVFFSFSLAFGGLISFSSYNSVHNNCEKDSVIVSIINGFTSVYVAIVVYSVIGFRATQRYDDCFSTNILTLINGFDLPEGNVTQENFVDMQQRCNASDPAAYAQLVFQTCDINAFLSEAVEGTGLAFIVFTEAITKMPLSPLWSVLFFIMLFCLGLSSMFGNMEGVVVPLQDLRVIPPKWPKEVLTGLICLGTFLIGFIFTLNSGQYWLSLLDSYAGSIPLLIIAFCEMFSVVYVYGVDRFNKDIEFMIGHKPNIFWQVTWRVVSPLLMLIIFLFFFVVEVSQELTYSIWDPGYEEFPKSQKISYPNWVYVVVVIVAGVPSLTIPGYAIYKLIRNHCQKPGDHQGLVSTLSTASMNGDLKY
# Sequence (Q9HBJ8 15-222 partner): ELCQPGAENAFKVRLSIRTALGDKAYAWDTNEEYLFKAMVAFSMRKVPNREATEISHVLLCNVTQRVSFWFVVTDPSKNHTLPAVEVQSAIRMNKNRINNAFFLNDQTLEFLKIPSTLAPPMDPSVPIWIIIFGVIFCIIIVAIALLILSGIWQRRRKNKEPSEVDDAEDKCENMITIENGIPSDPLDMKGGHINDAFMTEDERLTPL
# ASSAY_INFO: Radiolabelled (3H) leucine uptake in CHO cells with doxycycline-inducible expression of human SLC6A19 and TMEM27 (Example B-1)
# Format: cell-based
# CONDITIONS_USED: CHO cells with doxycycline-inducible expression of human SLC6A19 and TMEM27, read-out: SLC6A19_Radioligand Uptake Assay IC50
# Procedure: The flasks were then incubated (humidified, 37° C. with 5% CO2) for 2 minutes. After incubation, 10 mL of pre-warmed cell culture media was added to each flask. The cell suspension was collected and centrifuged for 5 minutes at 200×g. […] The resuspended cells were counted using the Countess Cell Counting Chamber (Invitrogen) and the cell concentration of the suspension was readjusted to 1 million live cells/mL using pre-warmed cell culture media. […]
pIC50: −log10 of the molar value.
READOUT_KIND: pIC50

>>> print(df.to_string())
                                    molecule  observed_value
 0  O=C(CO)NCc1cc2cc(Cl)c(OCc3cscn3)cc2[nH]1            6.41
 1   CC(=O)NCc1cc2cc(Cl)c(NCc3cscn3)cc2[nH]1            6.80
 2  Cc1cc(COc2cc3[nH]c(CNC(=O)[C@@H](C)CO)cc3cc2Cl)on1            5.78
 3  CC1(C(=O)NCc2cc3cc(-c4ccon4)c(OCc4cscn4)cc3[nH]2)CC1            5.71
 4  O=C(NCc1cc2cc(F)c(OCc3cscn3)cc2[nH]1)C1(F)CC1            7.16
 5  CC1(C(=O)NCc2cc3cc(Cl)c(OCCc4cscn4)cc3[nH]2)CC1            6.77
 6   CNC(=O)NCc1cc2cc(F)c(OCc3cocn3)cc2[nH]1            6.01
 7  Cc1cc(COc2cc3[nH]c(CNC(=O)NC(C)C)cc3cc2Cl)on1            6.58
 8  Cc1cc(COc2cc3[nH]c(CNC(=O)C4(C#N)CCC4)cc3cc2Cl)on1            6.44
 9   CC(=O)NCc1cc2cc(Cl)c(OCc3ccon3)cc2[nH]1            6.74
10  CC1(C(=O)NCc2cc3cc(Cl)c(CCc4cscn4)cc3[nH]2)CC1            7.07
11   CNC(=O)NCc1cc2cc(F)c(OCc3cscn3)cc2[nH]1            6.82
12  CN1CC(C(=O)NCc2cc3cc(Cl)c(OCc4cscn4)cc3[nH]2)C1=O (racemic)            5.35
13  [2H]C([2H])([2H])C1(C(=O)NCc2cc3cc(Cl)c(OCc4cscn4)cc3[nH]2)CC1            6.77
14  CNCC(=O)NCc1cc2cc(Cl)c(OCc3cscn3)cc2[nH]1            5.49
15  O=C(NCc1cc2cc(C(F)(F)F)c(OCc3cscn3)cc2[nH]1)N1CCCC1            5.78
16  CC1(C(=O)NCc2cc3cc(OC(F)F)c(OCc4ccon4)cc3[nH]2)CC1            6.84
17  CC1(C(=O)NCc2cc3ccc(OCc4cccc(F)n4)cc3[nH]2)CC1            6.76
18  O=C(NCc1cc2cc(C3CC3)c(OCc3cscn3)cc2[nH]1)N1CCCC1            6.44
19  Cc1ncc(COc2cc3[nH]c(CNC(=O)C4(C)CC4)cc3cc2F)s1            6.20
20    CC(=O)NCc1cc2c(F)cc(OCc3cscn3)cc2[nH]1            6.80
21  CC1CN(C(=O)NCc2cc3cc(F)c(OCc4cscn4)cc3[nH]2)C1            6.38
22  Cn1ncc(COc2cc3[nH]c(CNC(=O)N4CCCC4)cc3cc2Cl)n1            6.46
23  O=C(NCc1cc2cc(F)c(OCc3ccon3)cc2[nH]1)C1CCC1            6.61
24  O=C(NCc1cc2cc(Cl)c(NCc3cscn3)cc2[nH]1)N1CCCC1            6.47
25  O=C(NCc1cc2cc(F)c(OCc3ccon3)cc2[nH]1)C1(F)CC1            6.95
26  Cc1cc(COc2cc3[nH]c(CNC(=O)N4CCC4C(F)F)cc3cc2Cl)on1 (racemic)            6.18
27  CC1(C(=O)NCc2cc3cc(Cl)c(OCc4ccccc4O)cc3[nH]2)CC1            5.96
28  Cc1cc(COc2cc3[nH]c(CNC(=O)C(C)(C)C#N)cc3cc2Cl)on1            6.24
29  CC1(C(=O)NCc2cc3cc(Cl)c(OCc4ccccn4)cc3[nH]2)CC1            6.58
30  Cc1cc(COc2cc3[nH]c(CNC(=O)CC4(O)CC4)cc3cc2Cl)on1            5.85
31  O=C(NCc1cc2cc(F)c(NCc3ccon3)cc2[nH]1)N1CCC1            5.88
32  Cc1cc(COc2cc3[nH]c(CNC(=O)[C@H](C)CO)cc3cc2Cl)on1            5.87
33  CC1(C(=O)NCc2cc3cc(Cl)c(OCCc4cccnc4)cc3[nH]2)CC1            6.34
34  CC1(C(=O)NCc2cc3cc(Cl)c(OCc4cccc(C(F)(F)F)n4)cc3[nH]2)CC1            5.36
